Values from paper PMC4965013

# System: P. falciparum 3D7 trophozoites
# test name: Metabolomic fingerprint profiling LC-MS
# Assay type: cell-based, Plasmodium falciparum
# measurement setup: metabolite UDP-N-acetyl-glucosamine, S2 Table Metabolomics
Met means recorded UDP-N-acetyl-glucosamine is 0.2 or above; Not met means it is below 0.2.

compound: CCCc1cc(O)c2c3c(c(=O)oc2c1)CN(C)CC3
classification: Not met
--
compound: COc1ccc(-c2nc(NC(=O)CS(=O)(=O)c3ccc(F)cc3)sc2C)cc1
classification: Not met
--
compound: CC1CN(C(=O)c2sc3ccccc3c2Cl)CC(C)O1 (centres unmarked)
classification: Not met
--
compound: CC(C)(C)c1ccc(O)c(CNC2CCCCC2)c1
classification: Met

input: In plain terms: is recorded UDP-N-acetyl-glucosamine at least 0.2 for "CN1CCN(c2ccc(Nc3c4ccccc4nc4ccccc34)cc2)CC1" ?
output: Not met
